This listing pairs binders with measured pKd.
- ASSAY SYSTEM: T1, Canine IL-31RA ECD-10His (canine, biotin-labeled in the Octet assay (site not stated))
- T1 construct: The ELISA and Octet protocols say only 'IL-31RA' or 'canine IL-31RA'; also called cIL-31RA; canine IL-31 receptor alpha extracellular domain, HIS-tagged
- T1 chain: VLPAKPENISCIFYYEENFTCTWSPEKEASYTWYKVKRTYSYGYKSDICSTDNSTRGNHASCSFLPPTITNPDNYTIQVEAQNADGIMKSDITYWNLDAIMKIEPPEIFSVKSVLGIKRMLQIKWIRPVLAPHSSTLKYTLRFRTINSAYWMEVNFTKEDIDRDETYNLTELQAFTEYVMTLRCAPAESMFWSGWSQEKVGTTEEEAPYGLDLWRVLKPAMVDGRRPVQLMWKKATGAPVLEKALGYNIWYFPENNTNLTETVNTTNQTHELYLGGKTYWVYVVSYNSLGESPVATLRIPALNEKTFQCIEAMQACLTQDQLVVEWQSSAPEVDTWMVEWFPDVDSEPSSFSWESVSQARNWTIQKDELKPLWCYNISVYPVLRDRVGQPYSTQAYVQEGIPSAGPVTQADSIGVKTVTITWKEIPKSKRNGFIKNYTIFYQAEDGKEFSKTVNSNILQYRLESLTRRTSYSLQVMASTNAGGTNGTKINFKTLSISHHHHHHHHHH
- ASSAY NOTES: BLI (Octet), biotin-labeled canine IL-31RA on SA biosensors
Reminder that pKd means the negative base-10 logarithm of the concentration expressed in mol/L.

Sample records with pKd:
BINDER	PROPERTY	REPORTED RESULT
c218D9VH4VL2 (antibody, V domains shown, Caninized antibody; chains tied by name to c218D9VH4-cIgGBm and c218D9VL2-cCK; also called c218D9VH4L2) VH: EVTLQESGPGLVKPSQTLSLTCSFSGFSLSTFGRGVGWIRQRPGRGLEWMGHIWWDDDKYYNPALKSRLSITKDTAKNQVFLQLSSMTTEDTAVYYCARIAGGLRRAPYAMDSWGQGTLVTVSS VL: DIVMTQTPLSLSVSPGETASISCRASENIYSSLAWFRQKPGQSPQLLIYAATNLADGVPDRFSGSGSGTDFTLRISRVEADDTGVYYCQHFRDTPPTFGQGTKLEIKR	pKd	9.52
c51F8VH4VL6 (antibody, V domains shown, Caninized antibody; chains tied by name to c51F8VH4-cIgGBm and c51F8VL6-cCK; also called c51F8VH4L6) VH: EVQLVQSGAEVVKPGASVKVSCTASGFNIKNTFIHWVRQRPGAGLDWIGRIDPANGNTKYAPKFQGRATLTADTSTNTAYMQLSSLRAGDIAVYYCARYYYVSSYFDVWGTGTLVTVSS VL: DIVMTQTPLSLSVSPGETASISCKASQSVTNDVTWFRQKPGQSPQLLIYSASNRYTGVPDRFSGSGSGTDFTLRISTVEADDTGVYYCQQDYSSPWTFGQGTKLEIKR	pKd	9.00
Chimeric 218D9 (antibody, V domains shown, canine constant regions not specified; also called mouse-canine chimeric 218D9 antibody) VH: QVTLKESGPGILQPSQTLSLTCSFSGFSLSTFGRGVGWIRQPSGKGLDWLTHIWWDDDKYYNPALKSRLTISKDTSKNQVFLKIANVDTADTATYYCARIAGGLRRAPYAMDSWGQGTSVTVSS VL: DIQMTQSPASLSVSVGETVTITCRASENIYSSLAWYQQKQGKSPQLLVYAATNLADGVPSRFSGSGSGTQYSLKINSLQSEDSGNYYCQHFRDTPPTFGGGTKLEIK	pKd	10.16
c218D9VH4VL3 (antibody, V domains shown, Caninized antibody; chains tied by name to c218D9VH4-cIgGBm and c218D9VL3-cCK; also called c218D9VH4L3) VH: EVTLQESGPGLVKPSQTLSLTCSFSGFSLSTFGRGVGWIRQRPGRGLEWMGHIWWDDDKYYNPALKSRLSITKDTAKNQVFLQLSSMTTEDTAVYYCARIAGGLRRAPYAMDSWGQGTLVTVSS VL: DIVMTQTPLSLSVSPGETASISCRASENIYSSLAWFRQKPGQSPQLLVYAATNLADGVPDRFSGSGSGTDYTLRISRVEADDTGVYYCQHFRDTPPTFGQGTKLEIKR	pKd	10.35
c218D9VH3VL3 (antibody, V domains shown, Caninized antibody; chains tied by name to c218D9VH3-cIgGBm and c218D9VL3-cCK; also called c218D9VH3L3) VH: EVTLQESGPGLVKPSQTLSLTCSFSGFSLSTFGRGVGWIRQRPGRGLEWMGHIWWDDDKYYNPALKSRLSITKDTAKNQFSLQLSSMTTEDTAVYYCARIAGGLRRAPYAMDSWGQGTLVTVSS VL: DIVMTQTPLSLSVSPGETASISCRASENIYSSLAWFRQKPGQSPQLLVYAATNLADGVPDRFSGSGSGTDYTLRISRVEADDTGVYYCQHFRDTPPTFGQGTKLEIKR	pKd	10.38

(Q) Consider the binder shown here: c51F8VH3VL6 (antibody, V domains shown, Caninized antibody; chains tied by name to c51F8VH3-cIgGBm and c51F8VL6-cCK; also called c51F8VH3L6) VH: EVQLVQSGAEVKKPGASVKVSCTASGFNIKNTFIHWVRQAPGAGLDWIGRIDPANGNTKYAPKFQGRATLTADTSTNTAYMQLSSLRAGDIAVYYCARYYYVSSYFDVWGQGTLVTVSS VL: DIVMTQTPLSLSVSPGETASISCKASQSVTNDVTWFRQKPGQSPQLLIYSASNRYTGVPDRFSGSGSGTDFTLRISTVEADDTGVYYCQQDYSSPWTFGQGTKLEIKR What is its recorded pKd?
(A) 8.57

(Q) Consider the binder shown here: c51F8VH4VL7 (antibody, V domains shown, Caninized antibody; chains tied by name to c51F8VH4-cIgGBm and c51F8VL7-cCK; also called c51F8VH4L7) VH: EVQLVQSGAEVVKPGASVKVSCTASGFNIKNTFIHWVRQRPGAGLDWIGRIDPANGNTKYAPKFQGRATLTADTSTNTAYMQLSSLRAGDIAVYYCARYYYVSSYFDVWGTGTLVTVSS VL: DIVMTQTPLSLSVSPGETASISCKASQSVTNDVTWFRQKPGQSPKLLIYSASNRYTGVPDRFSGSGSGTDFTLRISTVEADDTGVYYCQQDYSSPWTFGQGTKLEIKR What is its recorded pKd?
(A) 8.91

(Q) Consider the binder shown here: Chimeric 51F8 (antibody, V domains shown, canine constant regions not specified; also called murine-canine chimeric 51F8) VH: EVQLQQSVAELVRPGASVKLSCTASGFNIKNTFIHWVKQRPEQGLEWIGRIDPANGNTKYAPKFQGRATLTADTSSNTAYLQLSSLTSEDTAIYYCARYYYVSSYFDVWGTGTTVTVSS VL: SIVMTQTPKFLLVSAGDRVTITCKASQSVTNDVTWYQQKPGQSPKLLIFSASNRYTGVPDRFTGSGYGTDFTFTISTVQAEDLAVYFCQQDYSSPWTFGGGTKLEIK What is its recorded pKd?
(A) 9.68

(Q) Consider the binder shown here: c51F8VH3VL7 (antibody, V domains shown, Caninized antibody; chains tied by name to c51F8VH3-cIgGBm and c51F8VL7-cCK; also called c51F8VH3L7) VH: EVQLVQSGAEVKKPGASVKVSCTASGFNIKNTFIHWVRQAPGAGLDWIGRIDPANGNTKYAPKFQGRATLTADTSTNTAYMQLSSLRAGDIAVYYCARYYYVSSYFDVWGQGTLVTVSS VL: DIVMTQTPLSLSVSPGETASISCKASQSVTNDVTWFRQKPGQSPKLLIYSASNRYTGVPDRFSGSGSGTDFTLRISTVEADDTGVYYCQQDYSSPWTFGQGTKLEIKR What is its recorded pKd?
(A) 8.40

(Q) Consider the binder shown here: c218D9VH3VL2 (antibody, V domains shown, Caninized antibody; chains tied by name to c218D9VH3-cIgGBm and c218D9VL2-cCK; also called c218D9VH3L2) VH: EVTLQESGPGLVKPSQTLSLTCSFSGFSLSTFGRGVGWIRQRPGRGLEWMGHIWWDDDKYYNPALKSRLSITKDTAKNQFSLQLSSMTTEDTAVYYCARIAGGLRRAPYAMDSWGQGTLVTVSS VL: DIVMTQTPLSLSVSPGETASISCRASENIYSSLAWFRQKPGQSPQLLIYAATNLADGVPDRFSGSGSGTDFTLRISRVEADDTGVYYCQHFRDTPPTFGQGTKLEIKR What is its recorded pKd?
(A) 9.28
